# experimentalTarget: T1, endogenous p97 (human, UniProt P55072 2-806)
# T1 construct: also called VCP
# T1 sequence (P55072 2-806 limits assumed): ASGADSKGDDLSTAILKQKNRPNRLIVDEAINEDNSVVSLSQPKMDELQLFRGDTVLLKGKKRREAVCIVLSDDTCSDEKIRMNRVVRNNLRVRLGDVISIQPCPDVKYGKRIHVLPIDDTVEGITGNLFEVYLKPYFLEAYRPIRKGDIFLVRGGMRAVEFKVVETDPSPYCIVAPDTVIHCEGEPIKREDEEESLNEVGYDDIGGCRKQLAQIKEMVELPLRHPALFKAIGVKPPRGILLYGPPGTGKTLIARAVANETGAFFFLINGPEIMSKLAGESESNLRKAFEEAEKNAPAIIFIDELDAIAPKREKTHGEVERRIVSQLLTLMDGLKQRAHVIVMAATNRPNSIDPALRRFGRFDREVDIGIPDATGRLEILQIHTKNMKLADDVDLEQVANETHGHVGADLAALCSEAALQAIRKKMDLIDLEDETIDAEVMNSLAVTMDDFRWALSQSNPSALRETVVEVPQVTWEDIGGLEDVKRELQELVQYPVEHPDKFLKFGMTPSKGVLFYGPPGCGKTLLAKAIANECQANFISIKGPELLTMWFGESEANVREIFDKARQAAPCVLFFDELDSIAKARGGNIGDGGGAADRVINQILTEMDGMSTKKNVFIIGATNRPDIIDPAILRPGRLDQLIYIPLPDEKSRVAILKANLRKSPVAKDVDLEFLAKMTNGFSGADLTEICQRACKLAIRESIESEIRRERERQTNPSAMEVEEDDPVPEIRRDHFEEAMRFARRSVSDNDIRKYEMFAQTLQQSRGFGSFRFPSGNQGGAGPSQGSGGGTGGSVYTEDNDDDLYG
# assayOverview: Flag co-IP, 293 cells, MudPIT MS
# Procedure: For immunoprecipitation experiments, the cells were lysed in buffer A (50 mM HEPES/KOH, pH 7.5; 5 mM Mg(OAc)₂; 70 mM KOAc; 0.2% Triton X-100; 10% glycerol; 0.2 mM EDTA; protease inhibitors) and incubated with anti-Flag agarose beads (Sigma) or anti-Myc sepharose beads (Covance). […]
measurementName: sequence coverage (%)

>>> measurement("Flag-UBXD3 (other, UniProt Q96LJ8 1-280, looked up, also called RDB 2149; not shown: N-terminal Flag tag) MATEAPVNIAPPECSTVVSTAVDSLIWQPNSLNMHMIRPKSAKGRTRPSLQKSQGVEVCAHHIPSPPPAIPYELPSSQKPGACAPKSPNQGASDEIPELQQQVPTGASSSLNKYPVLPSINRKNLEEEAVETVAKKASSLQLSSIRALYQDETGTMKTSEEDSRARACAVERKFIVRTKKQGSSRAGNLEEPSDQEPRLLLAVRSPTGQRFVRHFRPTDDLQTIVAVAEQKNKTSYRHCSIETMEVPRRRFSDLTKSLQECRIPHKSVLGISLEDGEGWP")
64.5
